These data points were gathered from PubChem BioAssay (NCI).

Consider the following compounds and their measured TGI readings.
# System: SF-268 CNS
# assay: NCI tumour cell line growth inhibition, 48 h

Suppose we examine the compound CC(=O)[O][Ga]([Br])[O]C(C)=O ; what TGI value has been reported?
> 100 µM

Same for Cc1nc([N+](=O)[O-])cn1CC(=N)N
> 100 µM

Same for COc1ccc(OC)c(C(Cc2ccnc3ccccc23)Cc2ccnc3ccccc23)c1
> 10 µM

* * *

Consider the following compounds and their measured GI50 readings.
# Test system: HCC-2998 colon
# assay: NCI tumour cell line growth inhibition, 48 h

Check out these entries, answers already filled in.
COc1cc(C(=O)N2CCN(c3ncccn3)CC2)c(N)cc1OCc1ccccc1	> 100000 nM
CCCCCOc1ccc(/C=N/Nc2cc(C)nc3ccc(Br)cc23)cc1	2070 nM
C=C1C(=O)O[C@H]2[C@H]1CC/C(COC(=O)/C=C\C(=O)NCc1ccc(Cn3c(=O)sn(CCCC)c3=O)cc1)=C\CC[C@@]1(C)O[C@@H]21	1640 nM

Now look at this one.
Suppose we examine the compound O=S(=O)(Nc1ccc(F)cc1F)c1ccc(-c2cnc(C3CC3)o2)cc1 ; what GI50 value has been reported?
2390 nM
